assay: gradient 5% acetonitrile 3 min, to 50% in 2 min, to 85% in 15 min, held 3 min, 100 µL/min; conditions: column: Zorbax Extend-C18 2.1 x 50 mm; eluents: water / acetonitrile, 0.1% formic acid
EXPERIMENTAL ENDPOINT: RP-LC retention time (s)

>>> print(df.to_string())
                                compound  unit_of_measurement  value
0  Cc1noc2ncn(CC(=O)NCc3ccccc3F)c(=O)c12                    s    705

I = OC1(c2ccccn2)CCOC2(CCN(Cc3cccc(Cl)c3F)CC2)C1 (stereo not given)
II = Cc1c(C(=O)N2CCN(c3ccccn3)CC2)oc2ccc3c(c12)C(=O)CC1(CCCCCC1)O3
Compare I and II and name the one whose reported RP-LC retention time is smaller. API: response body contains the label of the selected item.
I

I = CCN(CC)CCCNC(=O)c1ccc(-c2ccc3c(c2)CCN3C(C)=O)cc1
II = CCOC(=O)c1c(C)oc2nc(C)nc(N3CCN(c4ccccc4OC)CC3)c12
Compare I and II and name the one whose reported RP-LC retention time is smaller. API: response body contains the label of the selected item.
I

====

test: gradient 5% acetonitrile 3 min, to 50% in 2 min, to 85% in 15 min, held 3 min, 100 µL/min; settings: column: Zorbax Extend-C18 2.1 x 50 mm; eluents: water / acetonitrile, 0.1% formic acid
EXPERIMENTAL ENDPOINT: RP-LC retention time (s)

Recorded RP-LC retention time, per entry:
                                   molecule  unit_of_measurement  value
0  COc1ccc(CNc2nccn(-c3ccc4c(c3)OCO4)c2=O)cc1OC                    s    724
1  CC(C)NC(=O)c1ccc2ccnc(N3CCN(c4ccc(Cl)cc4)CC3)c2c1                    s    816
2  Cc1ccc(N(Cc2nc3nc(C)c(Cl)c(C)n3n2)C(=O)c2ccco2)cc1                    s    887
3  O=C(NCCSCc1ccco1)c1cc(-c2ccccn2)nc2ccccc12                    s    885
4  Cc1nnc(SCC(=O)NCc2ccccc2)c2nn(-c3ccccc3)c(C)c12                    s    643

P = COc1ccc(-n2c(=O)c(C(=O)Nc3cccc(F)c3)c(O)c3cccnc32)cc1
Q = CCC(C)NC(=O)c1cc(C)n(C)n1 (centres undefined)
Please state the entry with greater RP-LC retention time among P and Q . API: response body contains the label of the selected item.
P

====

experiment: gradient 5% acetonitrile 3 min, to 50% in 2 min, to 85% in 15 min, held 3 min, 100 µL/min; conditions: column: Zorbax Extend-C18 2.1 x 50 mm; eluents: water / acetonitrile, 0.1% formic acid
EXPERIMENTAL ENDPOINT: RP-LC retention time (s)

                                   compound  experimental_endpoint  value
0           Cc1ncc([N+](=O)[O-])n1CCOC(N)=O   RP-LC retention time    624
1  O=C(Cc1ccsc1)N1CCC(n2c(-c3ccoc3)nc3cccnc32)C1 (stereo not given)   RP-LC retention time    811
2    COC(=O)c1ccsc1NC(=O)c1cc(-c2ccccc2)on1   RP-LC retention time   1170
3  CCOc1ccccc1-c1nc(Cc2nc(-c3ccc(OC)cc3)oc2C)no1   RP-LC retention time   1160
4  Cc1ccc(C)c(N2CCN(C(=O)CN(C)S(=O)(=O)c3ccc4c(c3)CCCC(=O)N4)CC2)c1   RP-LC retention time    908

P = COc1ccc(NC(=O)C2CCCN(c3nnc4ccccn34)C2)cc1C(F)(F)F (stereo not given)
Q = COCCn1cc2c3c(cccc31)CN(C(=O)c1ccc(Cl)s1)CC2
Please state the entry with greater RP-LC retention time among P and Q . API: response body contains the label of the selected item.
Q

a = O=C(NC1CCCCC1)N1CCC(N2C(=O)C3(CCCCC3)C2c2ccncc2)CC1 (stereo not given)
b = COc1cc(OC)c(NC(=O)N(C)CCc2noc(-c3ccccc3)n2)cc1Cl
Please state the entry with greater RP-LC retention time among a and b . API: response body contains the label of the selected item.
b
(b: 946 s, a: 659 s)

I = CC(=O)Nc1nsc(N2CCC(C(=O)N3CCN(c4ccc(F)cc4)CC3)CC2)n1
II = COC(=O)c1cc(C2CC2)nc2c1c(=O)n(Cc1ccccc1Cl)c(=O)n2C
Compare I and II and name the one whose reported RP-LC retention time is smaller. API: response body contains the label of the selected item.
I
(I: 680 s, II: 1130 s)

I = COC1C(=O)N(CC2CC2)C12CCN(C(=O)C1CC1)CC2 (stereo not given)
II = COCCOCC1CCN(S(=O)(=O)c2ccc(C(F)(F)F)cc2)CC1
Please state the entry with greater RP-LC retention time among I and II . API: response body contains the label of the selected item.
II
